Assay overview: recombinant barcode read abundance after kanamycin selection (control-corrected) (log10(CPM+1)); higher = more efficient recombination; sequences stand for … in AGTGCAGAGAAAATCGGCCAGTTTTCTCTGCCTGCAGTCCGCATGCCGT…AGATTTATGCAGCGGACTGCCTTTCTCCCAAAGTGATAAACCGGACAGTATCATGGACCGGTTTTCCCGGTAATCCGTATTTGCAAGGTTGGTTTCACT; site = the 11-nt target;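 further: IS621 recombinase and bridge RNA in Escherichia coli cells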
Mark f for recombinant barcode read abundance (log10) values under 0.1, and t for everything at or above.

[
  {
    "Sequence string": "TGGACGTCTTGGGTTCTAACCTGTTGCCT (site TGGACGTCTAG)",
    "Label class": "t"
  },
  {
    "Sequence string": "TAGACTACTTGGGTTCTAACCTGTTGCCT (site CAGACTCCTAG)",
    "Label class": "f"
  },
  {
    "Sequence string": "AATATGCCTTGGGTTCTAACCTGTTGCCT (site AATATGCCTAG)",
    "Label class": "t"
  },
  {
    "Sequence string": "TACGGCTCTTGGGTTCTAACCTGTTGCTT (site TACAGCTCTAA)",
    "Label class": "t"
  },
  {
    "Sequence string": "CATAGAGCTTGGGTTCTAACCTGTTGCCT (site CATAGAGCTAG)",
    "Label class": "t"
  },
  {
    "Sequence string": "CGCTGGTCTTGGGTTCTAACCTGTTGCCT (site CGCTGGTCTAG)",
    "Label class": "f"
  },
  {
    "Sequence string": "CTAAGCTCTTGGGTTCTAACCTGTTGCTA (site CTAAGCTCTGA)",
    "Label class": "t"
  },
  {
    "Sequence string": "CCATGGTCTTGGGTTCTAACCTGTTGCTT (site CCATACTCTAA)",
    "Label class": "f"
  },
  {
    "Sequence string": "TATTTGCCTTGGGTTCTAACCTGTTGCCT (site TATTTGCCTAG)",
    "Label class": "f"
  },
  {
    "Sequence string": "TGTAATCCTTGGGTTCTAACCTGTTGCCT (site TGTAATACTAG)",
    "Label class": "t"
  },
  {
    "Sequence string": "GGTATAGCTTGGGTTCTAACCTGTTGCCT (site GGTATAGCTAG)",
    "Label class": "t"
  },
  {
    "Sequence string": "CCACTCCCTTGGGTTCTAACCTGTTGCCT (site CCACTCCCTAG)",
    "Label class": "f"
  },
  {
    "Sequence string": "GAAAGTGCTTGGGTTCTAACCTGTTGCCT (site CAAAGTGCTAG)",
    "Label class": "f"
  },
  {
    "Sequence string": "AAGATATCTTGGGTTCTAACCTGTTGCCT (site AGGATATCTAG)",
    "Label class": "f"
  },
  {
    "Sequence string": "GTCACCTCTTGGGTTCTAACCTGTTGCTA (site GTCACCTCTTA)",
    "Label class": "t"
  },
  {
    "Sequence string": "GATAGGGCTTGGGTTCTAACCTGTTGCCT (site TTATACACTGA)",
    "Label class": "t"
  },
  {
    "Sequence string": "GGATGTCCTTGGGTTCTAACCTGTTGCGT (site GGATGTCCTAC)",
    "Label class": "t"
  },
  {
    "Sequence string": "CGGCTACCTTGGGTTCTAACCTGTTGCGG (site CGGCTACCTCC)",
    "Label class": "t"
  },
  {
    "Sequence string": "GGCAGATCTTGGGTTCTAACCTGTTGCTT (site GGCAGGTCTAA)",
    "Label class": "f"
  },
  {
    "Sequence string": "GGCTTACCTTGGGTTCTAACCTGTTGCCT (site GGCTTACCTAG)",
    "Label class": "t"
  },
  {
    "Sequence string": "CGCTTGTCTTGGGTTCTAACCTGTTGCTT (site CACTTGACTAA)",
    "Label class": "f"
  },
  {
    "Sequence string": "ACTGGACCTTGGGTTCTAACCTGTTGCTT (site ACTGGACCTAA)",
    "Label class": "t"
  },
  {
    "Sequence string": "TAGGGCACTTGGGTTCTAACCTGTTGCCG (site TAGGGCACTCG)",
    "Label class": "t"
  },
  {
    "Sequence string": "CTCGACACTTGGGTTCTAACCTGTTGCCT (site CTAGACACTAG)",
    "Label class": "t"
  },
  {
    "Sequence string": "CACAAGTCTTGGGTTCTAACCTGTTGCCG (site CACAAGTCTCT)",
    "Label class": "t"
  },
  {
    "Sequence string": "GGAGAGACTTGGGTTCTAACCTGTTGCAT (site ACGTGTCCTCC)",
    "Label class": "t"
  },
  {
    "Sequence string": "TCACCACCTTGGGTTCTAACCTGTTGCCT (site GAACCACCTAG)",
    "Label class": "f"
  },
  {
    "Sequence string": "GTTAGAGCTTGGGTTCTAACCTGTTGCCT (site GTTCGAGCTAG)",
    "Label class": "t"
  },
  {
    "Sequence string": "AGTAAGCCTTGGGTTCTAACCTGTTGCCA (site AGTAAGGCTAG)",
    "Label class": "t"
  },
  {
    "Sequence string": "GTACGATCTTGGGTTCTAACCTGTTGCGG (site CCTTCTCCTAT)",
    "Label class": "f"
  },
  {
    "Sequence string": "CTAACCTCTTGGGTTCTAACCTGTTGCAT (site CTAACCTCTAT)",
    "Label class": "t"
  },
  {
    "Sequence string": "ACGCCGACTTGGGTTCTAACCTGTTGCCT (site ACGCGGACTAG)",
    "Label class": "t"
  },
  {
    "Sequence string": "AAGATATCTTGGGTTCTAACCTGTTGCCT (site ACGATATCTAG)",
    "Label class": "t"
  },
  {
    "Sequence string": "TAGCACCCTTGGGTTCTAACCTGTTGCCT (site TAGCACCCTGG)",
    "Label class": "t"
  },
  {
    "Sequence string": "CCAAGCGCTTGGGTTCTAACCTGTTGCCT (site CCAAGCGCTAG)",
    "Label class": "t"
  },
  {
    "Sequence string": "ACTGGTCCTTGGGTTCTAACCTGTTGCAG (site ACTGGTCCTCT)",
    "Label class": "t"
  },
  {
    "Sequence string": "TAGTGTCCTTGGGTTCTAACCTGTTGCGT (site TAGTCTCCTAC)",
    "Label class": "t"
  },
  {
    "Sequence string": "GAGAAATCTTGGGTTCTAACCTGTTGCCT (site GAGATATCTAG)",
    "Label class": "f"
  },
  {
    "Sequence string": "CTATCGCCTTGGGTTCTAACCTGTTGCCT (site CTTTCGCCTAG)",
    "Label class": "f"
  },
  {
    "Sequence string": "GGGCACTCTTGGGTTCTAACCTGTTGCCT (site GGGCACTCTAA)",
    "Label class": "t"
  },
  {
    "Sequence string": "GAGCGCTCTTGGGTTCTAACCTGTTGCCT (site GAGTGCTCTAC)",
    "Label class": "f"
  },
  {
    "Sequence string": "CGGGCTACTTGGGTTCTAACCTGTTGCCA (site CGGGCTACTTG)",
    "Label class": "t"
  }
]
